# Tested on: HBV
# assay remarks: anti-HBV activity, HepG2.2.15 stable transfected cell line, HBV DNA from secreted virions by realtime PCR
# Format: cell-based
# assay conditions: Hepatitis B virus, 144 h, HepG2.2.15 cells, 6 days of treatment
Rule: measured EC50 below 70 nM gets 1 (yes); anything equal to or greater than 70 nM gets 0 (no).

Prompt: Is 70 nM strictly greater than the molecule's reported EC50? molecule: C[C@@H](NS(=O)(=O)c1cn(C)c(C(=O)Nc2cccc(C#N)n2)c1F)C(F)(F)F
Completion: 0 (no)

Prompt: Now give it for Cc1cc(NC(=O)c2c(F)c(S(=O)(=O)N[C@H](C)C(C)(F)F)cn2C)cc(C(F)F)n1 too.
Completion: 0 (no)

Prompt: Now give it for C[C@@H](NS(=O)(=O)c1cn(C)c(C(=O)Nc2cc(Cl)nc(Cl)c2)c1F)C(F)(F)F too.
Completion: 1 (yes)

Prompt: Now give it for Cn1cc(S(=O)(=O)NC2(C)COC2)cc1C(=O)Nc1cc(C(F)(F)F)ccn1 too.
Completion: 0 (no)

Prompt: Now give it for C[C@@H](NS(=O)(=O)c1cn(C)c(C(=O)Nc2ccnc(C(F)F)c2)c1Cl)C(C)(F)F too.
Completion: 1 (yes)

Prompt: Now give it for C[C@@H](NS(=O)(=O)c1cn(C)c(C(=O)Nc2cccc(C(F)(F)F)n2)c1F)C(F)(F)F too.
Completion: 0 (no)

Prompt: Now give it for Cn1cc(S(=O)(=O)NC2(C)CC(F)(F)C2)c(Cl)c1C(=O)Nc1ccnc(C(F)F)c1 too.
Completion: 1 (yes)

Prompt: Now give it for C[C@@H](NS(=O)(=O)c1cn(C)c(C(=O)Nc2cccc(C#N)n2)c1Cl)C(F)(F)F too.
Completion: 0 (no)
